Consider the following compounds; for each one, report its MIC.
Tested on: wild-type E. coli K-12 str. BW25113
Experiment: microbe, parasite or virus in culture
Format: cell-based, Escherichia coli
Settings: Escherichia coli, BW25113; Table 10; without pore; technical duplicate; read-out: Minimum inhibitory concentration (MIC), K-12
Could you give me the number in µg/mL? Just the number is fine.

Item under review: CO[C@H]1/C=C/O[C@@]2(C)Oc3c(C)c(O)c4c(O)c(c(/C=N/N5CCN(C)CC5)c(O)c4c3C2=O)NC(=O)/C(C)=C\C=C\[C@H](C)[C@H](O)[C@@H](C)[C@@H](O)[C@@H](C)[C@H](OC(C)=O)[C@@H]1C . Reported MIC?
12.5

Item under review: CC(=O)O[C@H]1C[C@@]2(C)[C@@H](C[C@@H](O)[C@H]3[C@@]4(C)CC[C@@H](O)[C@@H](C)[C@@H]4CC[C@@]32C)/C1=C(\CCC=C(C)C)C(=O)O . Reported MIC?
400

Item under review: COc1cccc2c1C(=O)c1c(O)c3c(c(O)c1C2=O)C[C@@](O)(C(C)=O)C[C@@H]3O[C@H]1C[C@H](N)[C@H](O)[C@H](C)O1 . Reported MIC?
200

###

Below are compounds with their MIC as measured on EKO-35 araC::acrBD408A.
Could you give me the number in µg/mL? Just the number is fine.

Item under review: COc1cc(Cc2cnc(N)nc2N)cc(OC)c1OC . Reported MIC?
0.098

Item under review: CO[C@@H]1[C@@H](OC(N)=O)[C@@H](O)[C@H](Oc2ccc3c(O)c(NC(=O)c4ccc(O)c(CC=C(C)C)c4)c(=O)oc3c2C)OC1(C)C . Reported MIC?
3.12

Item under review: CC[C@H]1OC(=O)[C@H](C)[C@@H](O[C@H]2C[C@@](C)(OC)[C@@H](O)[C@H](C)O2)[C@H](C)[C@@H](O[C@@H]2O[C@H](C)C[C@H](N(C)C)[C@H]2O)[C@](C)(O)C[C@@H](C)C(=O)[C@H](C)[C@@H](O)[C@]1(C)O . Reported MIC?
3.12

Item under review: CCn1cc(C(=O)O)c(=O)c2cc(F)c(N3CCNCC3)cc21 . Reported MIC?
0.02

Item under review: CCn1cc(C(=O)O)c(=O)c2ccc(C)nc21 . Reported MIC?
1.25

Item under review: CO[C@H]1/C=C/O[C@@]2(C)Oc3c(C)c(O)c4c(O)c(c(/C=N/N5CCN(C)CC5)c(O)c4c3C2=O)NC(=O)/C(C)=C\C=C\[C@H](C)[C@H](O)[C@@H](C)[C@@H](O)[C@@H](C)[C@H](OC(C)=O)[C@@H]1C . Reported MIC?
3.12

###

Consider the following compounds; for each one, report its MIC.
Could you give me the number in µg/mL? Just the number is fine.

Please provide the recorded MIC for CC[n+]1c(-c2ccccc2)c2cc(N)ccc2c2ccc(N)cc21 [ethidium bromide] , tested on EKO-35 araC::mdtBC.
0.195

Please provide the recorded MIC for CC[C@H]1OC(=O)[C@H](C)[C@@H](O[C@H]2C[C@@](C)(OC)[C@@H](O)[C@H](C)O2)[C@H](C)[C@@H](O[C@@H]2O[C@H](C)C[C@H](N(C)C)[C@H]2O)[C@](C)(O)C[C@@H](C)CN(C)[C@H](C)[C@@H](O)[C@]1(C)O [azithromycin] , tested on EKO-35 araC::mdtBC.
0.781

Please provide the recorded MIC for CN(C)c1ccc(O)c2c1C[C@H]1C[C@H]3[C@H](N(C)C)C(O)=C(C(N)=O)C(=O)[C@@]3(O)C(O)=C1C2=O [minocycline] , tested on EKO-35 araC::mdtBC.
0.049

Please provide the recorded MIC for [H]/N=C(/N)N[C@H]1[C@H](O)[C@@H](O)[C@H](O[C@@H]2O[C@@H](C)[C@](O)(C=O)[C@H]2O[C@@H]2O[C@@H](CO)[C@H](O)[C@@H](O)[C@@H]2NC)[C@@H](N/C(N)=N\[H])[C@@H]1O [Streptomycin] , tested on EKO-35 araC::mdtBC.
6.25

Please provide the recorded MIC for COc1cccc2c1C(=O)c1c(O)c3c(c(O)c1C2=O)C[C@@](O)(C(=O)CO)C[C@@H]3O[C@H]1C[C@H](N)[C@H](O)[C@H](C)O1 [doxorubicin] , tested on EKO-35 araC::mdtBC.
1.56

###

System: EKO-35-Pore
Experiment: MIC susceptibility profiling, porinated strain
Format: cell-based, Escherichia coli
Settings: Escherichia coli; Table 10; with pore; technical duplicate; read-out: Minimum inhibitory concentration (MIC), Pore EKO-35
Kindly note that classification relies on MIC with these boundaries: bottom bin: < 0.3 µg/mL; middle bin: ≥ 0.3 µg/mL and < 0.8 µg/mL; top bin: ≥ 0.8 µg/mL

Which class holds O=C(O)c1cn(C2CC2)c2cc(N3CCNCC3)c(F)cc2c1=O [ciprofloxacin] ?
bottom bin

Which class holds NC[C@H]1O[C@H](O[C@H]2[C@H](O)[C@@H](O[C@H]3O[C@H](CO)[C@@H](O)[C@H](N)[C@H]3O)[C@H](N)C[C@@H]2N)[C@H](O)[C@@H](O)[C@@H]1O [kanamycin] ?
top bin

Which class holds CCn1cc(C(=O)O)c(=O)c2ccc(C)nc21 [nalidixic acid] ?
top bin

Which class holds CC(=O)NC[C@H]1CN(c2ccc(N3CCOCC3)c(F)c2)C(=O)O1 [linezolid] ?
top bin

Which class holds CC1(C)S[C@@H]2[C@H](NC(=O)[C@H](N)c3ccccc3)C(=O)N2[C@H]1C(=O)O [ampicillin] ?
top bin

Which class holds CN(C)c1ccc(O)c2c1C[C@H]1C[C@H]3[C@H](N(C)C)C(O)=C(C(N)=O)C(=O)[C@@]3(O)C(O)=C1C2=O [minocycline] ?
bottom bin

Which class holds CO[C@H]1/C=C/O[C@@]2(C)Oc3c(C)c(O)c4c(O)c(c(/C=N/N5CCN(C)CC5)c(O)c4c3C2=O)NC(=O)/C(C)=C\C=C\[C@H](C)[C@H](O)[C@@H](C)[C@@H](O)[C@@H](C)[C@H](OC(C)=O)[C@@H]1C [rifampicin] ?
middle bin

Which class holds CC[n+]1c(-c2ccccc2)c2cc(N)ccc2c2ccc(N)cc21 [ethidium bromide] ?
bottom bin

Which class holds CCn1cc(C(=O)O)c(=O)c2cc(F)c(N3CCNCC3)cc21 [norfloxacin] ?
bottom bin

Which class holds CCCCCCCCCCCCOS(=O)(=O)[O-].[Na+] [SDS, sodium dodecyl sulphate] ?
top bin

Which class holds CC[C@H]1OC(=O)[C@H](C)[C@@H](O[C@H]2C[C@@](C)(OC)[C@@H](O)[C@H](C)O2)[C@H](C)[C@@H](O[C@@H]2O[C@H](C)C[C@H](N(C)C)[C@H]2O)[C@](C)(O)C[C@@H](C)CN(C)[C@H](C)[C@@H](O)[C@]1(C)O [azithromycin] ?
bottom bin

Which class holds CN[C@H](CC(C)C)C(=O)N[C@H]1C(=O)N[C@@H](CC(N)=O)C(=O)N[C@H]2C(=O)N[C@H]3C(=O)N[C@H](C(=O)N[C@H](C(=O)O)c4cc(O)cc(O)c4-c4cc3ccc4O)[C@H](O)c3ccc(c(Cl)c3)Oc3cc2cc(c3O[C@@H]2O[C@H](CO)[C@@H](O)[C@H](O)[C@H]2O[C@H]2C[C@](C)(N)[C@H](O)[C@H](C)O2)Oc2ccc(cc2Cl)[C@H]1O [vancomycin] ?
top bin

Which class holds [H]/N=C(/N)N[C@H]1[C@H](O)[C@@H](O)[C@H](O[C@@H]2O[C@@H](C)[C@](O)(C=O)[C@H]2O[C@@H]2O[C@@H](CO)[C@H](O)[C@@H](O)[C@@H]2NC)[C@@H](N/C(N)=N\[H])[C@@H]1O [Streptomycin] ?
top bin

Which class holds CN(C)[C@@H]1C(O)=C(C(N)=O)C(=O)[C@@]2(O)C(O)=C3C(=O)c4c(O)cccc4[C@@](C)(O)[C@H]3C[C@@H]12 [tetracycline] ?
bottom bin

Which class holds [H]/N=C(\N/C(=N/[H])NCCCCCCNC(=N)NC(=N)Nc1ccc(Cl)cc1)Nc1ccc(Cl)cc1 [Chlorhexidine] ?
middle bin

Which class holds CC[C@H]1OC(=O)[C@H](C)[C@@H](O[C@H]2C[C@@](C)(OC)[C@@H](O)[C@H](C)O2)[C@H](C)[C@@H](O[C@@H]2O[C@H](C)C[C@H](N(C)C)[C@H]2O)[C@](C)(O)C[C@@H](C)C(=O)[C@H](C)[C@@H](O)[C@]1(C)O [erythromycin] ?
bottom bin

Which class holds CC(=O)O[C@H]1C[C@@]2(C)[C@@H](C[C@@H](O)[C@H]3[C@@]4(C)CC[C@@H](O)[C@@H](C)[C@@H]4CC[C@@]32C)/C1=C(\CCC=C(C)C)C(=O)O [fusidic acid] ?
middle bin

Which class holds Cc1onc(-c2ccccc2)c1C(=O)N[C@@H]1C(=O)N2[C@@H]1SC(C)(C)[C@@H]2C(=O)O [oxacillin] ?
middle bin
